Experimental protocol: Solubility of the compound
Format: physicochemical
Each item that follows carries a reported solubility.
Experimental endpoint: solubility (µg/mL)

INSERT INTO assay_data (molecule, experimental_endpoint, value_measured) VALUES
  ('Cn1ccc2c(-c3ccc(C(=O)O)c(C4CCCC4)c3)ccnc21', 'solubility', 40),
  ('O=C(O)c1ccc(-c2ccncn2)cc1C1CCCC1', 'solubility', 19.4),
  ('O=C(O)c1ccc(-c2ccnc(Nc3ccccc3)n2)cc1C1CCCC1', 'solubility', 10.6),
  ('O=C(O)c1ccc(-c2ccnc3ccccc23)cc1C1CCCC1', 'solubility', 64.4),
  ('O=C(O)c1ccc(-c2ccnc3ccc(-c4ccccc4)cc23)cc1C1CCCC1', 'solubility', 38),
  ('O=C(O)c1ccc(-c2ncnc3ccc(-c4ccccc4)cc23)cc1C1CCCC1', 'solubility', 70.4),
  ('O=C(O)c1ccc(-c2csc3ncc(-c4ccccc4)cc23)cc1C1CCCC1', 'solubility', 1.5),
  ('O=C(O)c1ccc(-c2c[nH]c3ncc(-c4ccccc4)cc23)cc1C1CCCC1 [GSK-650394]', 'solubility', 2),
  ('O=C(O)c1ccc(-c2ncnc3sccc23)cc1C1CCCC1', 'solubility', 62.6),
  ('O=C(O)c1ccc(-c2cnn3ccc(-c4ccccc4)cc23)cc1C1CCCC1', 'solubility', 42);
